Target: T1, GST-ZO-2 PDZ domain 1 (Homo sapiens (Human)), Q9UDY2
T1 chain: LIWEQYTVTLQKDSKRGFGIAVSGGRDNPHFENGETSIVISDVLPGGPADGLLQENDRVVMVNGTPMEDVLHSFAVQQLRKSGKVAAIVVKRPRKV
Assay: G assay titration, PDZ 1 ug/ml
Measured Attribute: Kd (nM)
One number for each entry, in nM.

Q: Need Kd, item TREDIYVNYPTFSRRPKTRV (modifications not checked) [DNAM-1]
Ans: 3000
